# target_desc: TRα (Homo sapiens, UniProt P10827)
# Construct: expressed in transfected cells; host or cells: HEK293
# Sequence (P10827 163-410 isoform P10827-2 limits assumed): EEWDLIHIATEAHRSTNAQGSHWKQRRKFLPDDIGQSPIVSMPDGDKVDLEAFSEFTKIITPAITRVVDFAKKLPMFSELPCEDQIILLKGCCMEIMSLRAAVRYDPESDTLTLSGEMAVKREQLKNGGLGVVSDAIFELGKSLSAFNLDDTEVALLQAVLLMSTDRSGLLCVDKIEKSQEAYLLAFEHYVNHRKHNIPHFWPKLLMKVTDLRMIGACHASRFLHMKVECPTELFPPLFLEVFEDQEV
# procedure_text: Thyroid-hormone reporter-gene assay (TRα-Gal4 hybrid, luciferase, HEK293)
# Assay type: cell-based
# condition_set: reporter cells, 24 hr incubation; Table 2; read-out: TRα (EC50)
# Procedure: Compounds were tested for thyroid-hormone receptor activity using TR reporter-gene assays. Reporter cells used in the assays express a TR-receptor hybrid (either TRα or TRβ) in which the native N-terminal DNA binding domain (DBD) has been replaced with that of the yeast Gal4 DBD. […] Step 4: At the 24 h assay endpoint, treatment media were discarded and 100 μl/well of luciferase detection reagent was added. Relative luminometer units (RLUs) were quantified from each assay well.
measurement_label: EC50

Field: example entries. Status: answers known.
# molecule, target_desc, EC50
rows = [
    ("C=C(C)c1cc(OCC(=O)O)c(F)c(Cl)c1Cc1ccc(O)c(C(C)C)c1 [Compound 79]", "TRα (Homo sapiens, UniProt P10827)", "100 to 1000 nM"),
    ("O=C(O)COc1cc(Cl)c(Cc2ccc(O)c(Cc3ccc(F)cc3)c2F)c(Cl)c1 [Compound 28]", "TRα (Homo sapiens, UniProt P10827)", "10 to 100 nM"),
    ("Cc1cc(OCC(=O)O)cc(C)c1Cc1ccc(O)c(C(C)c2ccc(F)cc2)c1F (centres unmarked) [Compound 6]", "TRα (Homo sapiens, UniProt P10827)", "10 to 100 nM"),
    ("O=C(O)COc1cc(Cl)c(Cc2ccc(O)c(-c3cc(OC(F)F)ccc3F)c2F)c(Cl)c1 [Compound 26]", "TRα (Homo sapiens, UniProt P10827)", "100 to 1000 nM"),
    ("C=C(C)c1cc(OCC(=O)O)cc(C)c1Cc1ccc(O)c(C(C)C)c1F [Compound 12]", "TRα (Homo sapiens, UniProt P10827)", "10 to 100 nM"),
    ("CCOC(=O)COc1cc(Cl)c(Cc2ccc(O)c(C(C)C)c2)c(Cl)c1OC [Compound 165]", "TRα (Homo sapiens, UniProt P10827)", "100 to 1000 nM"),
    ("Cc1cc(OCC(=O)O)c(F)c(Cl)c1Cc1ccc(O)c(C(C)C)c1F [Compound 109]", "TRα (Homo sapiens, UniProt P10827)", "10 to 100 nM"),
]

Query: Look up EC50 for this molecule: O=C(O)COc1cc(Cl)c(Cc2ccc(O)c(-c3cccc(OC(F)F)c3)c2F)c(Cl)c1 [Compound 24]
Response: 100 to 1000 nM
